B1: POU domain, class 3, transcription factor 1, residues 247 to 324; numbered along this chain, Q03052 (parent)
chain: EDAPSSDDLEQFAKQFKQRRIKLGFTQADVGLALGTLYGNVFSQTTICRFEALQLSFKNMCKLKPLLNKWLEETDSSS

Variants of: B1
assay_details: abundance fitness (aPCA) (normalised: wild type 0, dead -1); higher = more abundant; growth selection in yeast, the domain comes from the species named
test_conditions: Homo sapiens
Class assignment keyed on abundance fitness, ranges low: < -0.3; middle: ≥ -0.3 and < -0.07; high: ≥ -0.07

{"item_sequence": "EDAPSSDDLEQFAKQFKQRRIKLGFTQADVGLALGTLYGNVFSQTTICRFEALQLSFKNMCKLKPLLNKWLEWTDSSS [E73W]", "label_class": "middle"}
{"item_sequence": "EDAPSSDDLEQFAKQFKQRRIKLGFTQADVGLALGTLYGNVFSQPTICRFEALQLSFKNMCKLKPLLNKWLEETDSSS [T45P]", "label_class": "low"}
{"item_sequence": "EDAPSSDDLEQFAKQFKQRRIKLGFTQARVGLALGTLYGNVFSQTTICRFEALQLSFKNMCKLKPLLNKWLEETDSSS [D29R]", "label_class": "low"}
{"item_sequence": "EDAPSSDDLEQFAKQFKQRRIKLGFTQADVGLALGTLYGNVFSQTTICRFEALQLSFKNMCKLKPLLNKWLEETDGSS [S76G]", "label_class": "high"}
{"item_sequence": "EDAPSSDDLEQFAKQFKQRRIKLGFTQIDVGLALGTLYGNVFSQTTICRFEALQLSFKNMCKLKPLLNKWLEETDSSS [A28I]", "label_class": "low"}
{"item_sequence": "EDAPSSDDLEQFAKQFKQRRIKLGFTQADVGLALGTLYGNVFSQTTIYRFEALQLSFKNMCKLKPLLNKWLEETDSSS [C48Y]", "label_class": "low"}
{"item_sequence": "EDAPSSDDLEQFAKQFKQRRIKLGFTQADIGLALGTLYGNVFSQTTICRFEALQLSFKNMCKLKPLLNKWLEETDSSS [V30I]", "label_class": "high"}
{"item_sequence": "EDAPSSDDLEQFAKQFKQRRIKLGFTQADVGLALGTLYGNVFSQTQICRFEALQLSFKNMCKLKPLLNKWLEETDSSS [T46Q]", "label_class": "low"}
{"item_sequence": "EDAPSSDDLEQFAKQFKQRRIKLGFTQADVGLALGTLYGNVFSQTTICRFEAKQLSFKNMCKLKPLLNKWLEETDSSS [L53K]", "label_class": "middle"}
{"item_sequence": "EDAPSSDDLEQFAKQFKQRRIKLGFTQADVGLALGTLYGNVFSQTTICRFEALQLSFKGMCKLKPLLNKWLEETDSSS [N59G]", "label_class": "high"}
{"item_sequence": "EDAPSSDDLEQFAKQFKQRRIKLGFTQADVQLALGTLYGNVFSQTTICRFEALQLSFKNMCKLKPLLNKWLEETDSSS [G31Q]", "label_class": "low"}
{"item_sequence": "EDAPSSDDLEQFAKQFKQRRIKLRFTQADVGLALGTLYGNVFSQTTICRFEALQLSFKNMCKLKPLLNKWLEETDSSS [G24R]", "label_class": "low"}
{"item_sequence": "EDAPSSDDLEQFAKQFKQRRIKLGFTQADVGLALGTLYGNVFSQTTICRFEALQLSFKNMCKLKPLLNKWWEETDSSS [L71W]", "label_class": "low"}
{"item_sequence": "EDAPSSDDLEQFAKQFKQRRIKLGFTQADWGLALGTLYGNVFSQTTICRFEALQLSFKNMCKLKPLLNKWLEETDSSS [V30W]", "label_class": "low"}
{"item_sequence": "EDAPSSDDLEQFAKQFKQRRIKLGFTQADVGLALGTLYGNVFSQTTICRFEALQLSFKNMCKLKPLLNKWLEETDSWS [S77W]", "label_class": "middle"}
{"item_sequence": "EDAPSSDDLEQFAKQFKQRRIKLGFTQADVGLALGTLYGNAFSQTTICRFEALQLSFKNMCKLKPLLNKWLEETDSSS [V41A]", "label_class": "high"}
{"item_sequence": "EDAPSSDDLEQFAKQFKQRRIKLGFTQADVGLALGTLYGNVFSQTTICRFEALQLSLKNMCKLKPLLNKWLEETDSSS [F57L]", "label_class": "high"}
{"item_sequence": "EDAPSSDDLEQFAKQFKQRRIKLGFTQADVGVALGTLYGNVFSQTTICRFEALQLSFKNMCKLKPLLNKWLEETDSSS [L32V]", "label_class": "middle"}
{"item_sequence": "EDAPSSDDLEQFAKQFKQRRIKLGFTQADVGLALGTLYGNVFSQTTICRFEALQLSFKNMCKLKPLLNKWLEETDSSD [S78D]", "label_class": "high"}
{"item_sequence": "EDAPSSDDLEQFAKQFKQRRIKLGFTQQDVGLALGTLYGNVFSQTTICRFEALQLSFKNMCKLKPLLNKWLEETDSSS [A28Q]", "label_class": "middle"}
{"item_sequence": "EDAPSSDDLEQFAKQFKQRRIKLGFTQADVGLALGTLYGNVFSYTTICRFEALQLSFKNMCKLKPLLNKWLEETDSSS [Q44Y]", "label_class": "middle"}
{"item_sequence": "EDAPSSDDLEQFAKQFKQRRIKLGFTQVDVGLALGTLYGNVFSQTTICRFEALQLSFKNMCKLKPLLNKWLEETDSSS [A28V]", "label_class": "low"}
{"item_sequence": "EDAPSSDDLEQFAKQFKQRRIKLGFTQADVGLALGTLKGNVFSQTTICRFEALQLSFKNMCKLKPLLNKWLEETDSSS [Y38K]", "label_class": "middle"}
{"item_sequence": "EDAPSSDDLEQFAKQFKQRRIKLGFTQADVGLALGTLYGNVFSQTTICRFEALQLSFKNMCKLKPLLNKWLEETDSSL [S78L]", "label_class": "high"}
{"item_sequence": "EDAPSSDDLEQFAKQFKQRRIKLGFTQADVGLALGTLYGNVFSQTTICRFEALQLSFKNMCELKPLLNKWLEETDSSS [K62E]", "label_class": "middle"}
{"item_sequence": "EDAPSSDDLEQFAKQFKQRRIKLGYTQADVGLALGTLYGNVFSQTTICRFEALQLSFKNMCKLKPLLNKWLEETDSSS [F25Y]", "label_class": "high"}
{"item_sequence": "EDAPSSDDLEQFAKQFKQRRIKLGFTQADVGLALGTLYGNVFSQTTICRFEALQLSFKNMCKLKPLLNKWDEETDSSS [L71D]", "label_class": "low"}
{"item_sequence": "EDAPSSDDLEQFAKQFKQRRIILGFTQADVGLALGTLYGNVFSQTTICRFEALQLSFKNMCKLKPLLNKWLEETDSSS [K22I]", "label_class": "low"}
{"item_sequence": "EDAPSSDDLEQFAKQFKQRRIKLGFTQADVGLALGQLYGNVFSQTTICRFEALQLSFKNMCKLKPLLNKWLEETDSSS [T36Q]", "label_class": "high"}
{"item_sequence": "EDAPSSDDLEQFAKQFKQRRIKLGFTQADVGLALGTLYGNVFSQTTICRFEALQLSFKNMCKLKPLLNKWLEETDSSQ [S78Q]", "label_class": "middle"}
{"item_sequence": "EDAPSSDDLEQFAKQFKQRRIKLGFTQADVGLALGTLYGNVFSQTTICRFEALQLSFKNMCPLKPLLNKWLEETDSSS [K62P]", "label_class": "low"}
{"item_sequence": "EDAPSSDDLEQFAKQFKQRRIKLGFTQTDVGLALGTLYGNVFSQTTICRFEALQLSFKNMCKLKPLLNKWLEETDSSS [A28T]", "label_class": "high"}

Values compiled from the Human Domainome abundance scans (Beltran et al. 2025).
